// pKd collected for NTF2 domain of G3BP2 (Homo sapiens)
pKd: −log10 of the molar value. Peptide text beside a SMILES is read from it.

compound	pKd
CC(=O)N[C@@H](CCC(=O)O)C(=O)N[C@@H](CO)C(=O)N[C@@H](CC(C)C)C(=O)N1CCC[C@H]1C(=O)N[C@@H](Cc1ccccc1)C(=O)N[C@@H](CO)C(=O)N[C@@H](Cc1ccccc1)C(=O)NCC(=O)N[C@H](C(=O)N[C@@H](CC(C)C)C(=O)N[C@@H](CO)C(=O)N[C@@H](CO)C(=O)N[C@@H](Cc1c[nH]c2ccccc12)C(=O)N[C@@H](CCC(=O)O)C(=O)N[C@@H](CC(C)C)C(=O)N[C@@H](CCC(=O)O)C(=O)O)[C@@H](C)O [DDIT3 4-19 Human] (Ac-ESLPFSFGTLSSWELE-OH)	4.85
CC(=O)N[C@@H](CCC(N)=O)C(=O)NCC(=O)N[C@@H](CCCCN)C(=O)N1CCC[C@H]1C(=O)N[C@@H](CC(C)C)C(=O)N[C@@H](CCC(=O)O)C(=O)N[C@@H](Cc1ccccc1)C(=O)NCC(=O)N[C@@H](C)C(=O)N[C@H](C(=O)N[C@@H](CO)C(=O)N[C@@H](C)C(=O)N[C@@H](C)C(=O)N[C@@H](CC(C)C)C(=O)N[C@@H](CCC(N)=O)C(=O)N[C@@H](Cc1ccc(O)cc1)C(N)=O)[C@@H](C)O	4.46
